Values from patent US20250325517A1

Assay: Phase 1 crossover PK study: oral solution fed/fasted vs IV infusion in healthy subjects
Assay type: in vivo, human
Settings: human, plasma, po, 3.3 mg/kg, oral 3.3 mg/kg fasted state, human plasma; read-out: AUC∞ Median
READOUT KIND: AUC(0-inf) (ng·h/mL)
Numeric only. Scale: ng·h/mL

Fill in AUC(0-inf) for record Cn1cc(C2=C(c3coc4ccc(F)cc34)C(=O)NC2=O)c2cc3c(cc21)OCO3 [elraglusib] 1590

* * *

Experiment: Phase 1 crossover PK study: oral solution fed/fasted vs IV infusion in healthy subjects
Format: in vivo, human
Conditions: human, plasma, po, 3.3 mg/kg, oral 3.3 mg/kg fasted state, human plasma; read-out: AUClast Arithmetic Mean
READOUT KIND: AUC(0-t) (ng·h/mL)
Numeric only. Scale: ng·h/mL

Fill in AUC(0-t) for record Cn1cc(C2=C(c3coc4ccc(F)cc34)C(=O)NC2=O)c2cc3c(cc21)OCO3 1780

* * *

Test: Quantitative solubility by HPLC in organic solvents and surfactants
Type: physicochemical
Details: organic solvent or mixture, thermodynamic from solid; DCM:EtOH (1:1), no surfactant; read-out: Solubility (n = 2) by HPLC
READOUT KIND: solubility (mg/mL)
Numeric only. Scale: mg/mL

Fill in solubility for record Cn1cc(C2=C(c3coc4ccc(F)cc34)C(=O)NC2=O)c2cc3c(cc21)OCO3 [elraglusib] 16.4

* * *

Experiment: Solubility of elraglusib in acetone, acetone:water and THF with and without polymers (24 h, visual and HPLC)
Type: physicochemical
Conditions: organic solvent or mixture, thermodynamic from solid; acetone, 24 hours; read-out: measured solubility by HPLC
Description: The solubility of elraglusib API with and without polymers of interest was evaluated in acetone. […] Samples were prepared according to Table 6-13. […] Additional studies were performed to determine if an increased water content would prevent formation of the solvate precipitate and more dilute solutions were tested for potential ASD processing.
READOUT KIND: solubility at 24 h (mg/mL)
Numeric only. Scale: mg/mL

Fill in solubility at 24 h for record Cn1cc(C2=C(c3coc4ccc(F)cc34)C(=O)NC2=O)c2cc3c(cc21)OCO3 [elraglusib] 13.1

* * *

Experiment: Phase 1 crossover PK study: oral solution fed/fasted vs IV infusion in healthy subjects
Assay type: in vivo, human
Conditions: human, plasma, po, 3.3 mg/kg, oral 3.3 mg/kg fasted state, human plasma; read-out: AUC24 GMean
READOUT KIND: AUC

Fill in AUC for record Cn1cc(C2=C(c3coc4ccc(F)cc34)C(=O)NC2=O)c2cc3c(cc21)OCO3 1010 ng·h/mL

* * *

Experiment: Phase 1 crossover PK study: oral solution fed/fasted vs IV infusion in healthy subjects
Assay type: in vivo, human
Details: human, plasma, po, 3.3 mg/kg, oral 3.3 mg/kg fed state, human plasma; read-out: AUClast Median
READOUT KIND: AUC(0-t) (ng·h/mL)
Numeric only. Scale: ng·h/mL

Fill in AUC(0-t) for record Cn1cc(C2=C(c3coc4ccc(F)cc34)C(=O)NC2=O)c2cc3c(cc21)OCO3 4730

* * *

Assay: Phase 1 crossover PK study: oral solution fed/fasted vs IV infusion in healthy subjects
Assay type: in vivo, human
Conditions: human, plasma, other: oral solution (fed and fasted) and IV infusion, 3.3 mg/kg, human, all three treatments; read-out: mean terminal elimination half-life
READOUT KIND: half-life

Fill in half-life for record Cn1cc(C2=C(c3coc4ccc(F)cc34)C(=O)NC2=O)c2cc3c(cc21)OCO3 960 to 1260 min
